Target: S. aureus aa3 (cytochrome aa3 oxidase) (Staphylococcus aureus)
Construct: gene qoxB
Sequence (Q7A699 whole entry): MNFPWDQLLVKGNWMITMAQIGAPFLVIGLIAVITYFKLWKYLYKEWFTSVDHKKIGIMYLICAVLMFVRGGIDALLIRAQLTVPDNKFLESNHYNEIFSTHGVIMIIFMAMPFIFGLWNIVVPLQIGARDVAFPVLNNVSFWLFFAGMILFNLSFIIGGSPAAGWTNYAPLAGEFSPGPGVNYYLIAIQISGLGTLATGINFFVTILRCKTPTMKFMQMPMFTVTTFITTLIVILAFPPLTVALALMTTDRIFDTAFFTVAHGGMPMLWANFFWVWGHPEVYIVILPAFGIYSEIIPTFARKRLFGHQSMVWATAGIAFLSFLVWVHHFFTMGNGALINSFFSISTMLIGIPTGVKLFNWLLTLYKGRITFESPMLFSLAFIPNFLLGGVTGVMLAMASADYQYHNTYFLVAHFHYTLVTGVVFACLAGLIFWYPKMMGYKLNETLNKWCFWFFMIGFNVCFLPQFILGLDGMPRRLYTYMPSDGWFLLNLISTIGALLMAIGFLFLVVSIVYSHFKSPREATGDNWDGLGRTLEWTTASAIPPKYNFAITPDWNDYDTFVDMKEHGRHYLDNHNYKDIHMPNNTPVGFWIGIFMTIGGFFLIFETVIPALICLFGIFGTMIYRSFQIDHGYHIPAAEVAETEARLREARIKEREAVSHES
Sequence (Q7A698 20-366 partner): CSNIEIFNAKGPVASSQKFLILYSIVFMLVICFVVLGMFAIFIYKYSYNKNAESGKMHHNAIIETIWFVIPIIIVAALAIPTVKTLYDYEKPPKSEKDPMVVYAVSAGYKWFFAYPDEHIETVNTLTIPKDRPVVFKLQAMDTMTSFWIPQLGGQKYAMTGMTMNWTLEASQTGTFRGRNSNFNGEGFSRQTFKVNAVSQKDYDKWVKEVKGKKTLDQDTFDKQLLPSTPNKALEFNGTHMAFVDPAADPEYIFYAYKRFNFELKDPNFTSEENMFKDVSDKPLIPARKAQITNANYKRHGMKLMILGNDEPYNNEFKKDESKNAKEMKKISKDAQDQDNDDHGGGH
Sequence (Q7A6A0 whole entry partner): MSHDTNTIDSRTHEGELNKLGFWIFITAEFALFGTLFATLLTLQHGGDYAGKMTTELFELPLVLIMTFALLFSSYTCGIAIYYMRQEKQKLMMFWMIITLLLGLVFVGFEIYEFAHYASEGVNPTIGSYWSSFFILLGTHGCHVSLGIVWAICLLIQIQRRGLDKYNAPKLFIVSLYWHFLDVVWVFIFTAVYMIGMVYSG
Sequence (Q7A6A1 whole entry partner): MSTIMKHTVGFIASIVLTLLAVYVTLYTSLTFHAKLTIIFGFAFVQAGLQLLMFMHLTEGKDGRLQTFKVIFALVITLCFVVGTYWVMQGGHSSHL
Test: biochemical
REPORTED_ENDPOINT: IC50 (µM)
Please reply with the bare figure in µM and do not write the unit itself.

Problem: Param readout= IC50; system= S. aureus aa3 (cytochrome aa3 oxidase) (Staphylococcus aureus); entry= O=NO ; returns value.
Solution: 137

====

Biological target: bd (bd-type quinol oxidase) (Shewanella oneidensis, UniProt Q8EC58)
Sequence (Q8EC58 1-518): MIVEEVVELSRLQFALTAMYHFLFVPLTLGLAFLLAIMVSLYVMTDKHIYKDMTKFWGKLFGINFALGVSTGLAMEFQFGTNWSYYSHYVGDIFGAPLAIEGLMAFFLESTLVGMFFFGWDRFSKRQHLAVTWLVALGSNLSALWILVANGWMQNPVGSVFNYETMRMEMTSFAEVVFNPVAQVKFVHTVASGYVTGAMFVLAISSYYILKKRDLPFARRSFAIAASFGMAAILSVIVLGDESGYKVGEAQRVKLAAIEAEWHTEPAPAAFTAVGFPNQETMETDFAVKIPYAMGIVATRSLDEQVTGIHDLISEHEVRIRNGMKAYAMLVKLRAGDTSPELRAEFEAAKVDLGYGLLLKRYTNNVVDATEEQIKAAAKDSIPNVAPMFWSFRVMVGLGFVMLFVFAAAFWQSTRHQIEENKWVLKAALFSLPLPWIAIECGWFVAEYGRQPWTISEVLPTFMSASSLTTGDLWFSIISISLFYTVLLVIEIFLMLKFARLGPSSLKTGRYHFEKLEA
Sequence (Q8EC59 1-379 partner): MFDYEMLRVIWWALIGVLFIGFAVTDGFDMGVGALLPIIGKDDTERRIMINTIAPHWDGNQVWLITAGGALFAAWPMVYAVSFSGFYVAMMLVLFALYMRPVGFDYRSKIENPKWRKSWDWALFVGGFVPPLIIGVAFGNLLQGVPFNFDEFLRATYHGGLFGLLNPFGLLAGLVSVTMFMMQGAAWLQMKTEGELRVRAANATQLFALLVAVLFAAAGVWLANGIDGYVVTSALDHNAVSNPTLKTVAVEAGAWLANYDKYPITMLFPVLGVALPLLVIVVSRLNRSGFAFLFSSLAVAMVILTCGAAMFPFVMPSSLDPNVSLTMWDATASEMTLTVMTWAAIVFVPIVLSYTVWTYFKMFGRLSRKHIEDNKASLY
Conditions: read-out: IC50(NO2^-); 5 mM NADH as electron donor; ~70 μM O2; membranes of delta-cco strain
REPORTED_ENDPOINT: pIC50
# pIC50: negative log10 of molar concentration; output just the value

Problem: Suppose we examine the compound O=NO ; what pIC50 value has been reported?
Solution: 3.68

====

Molecular target: E. coli bo3 (cytochrome bo3 oxidase) (Escherichia coli)
Sequence (P0ABI8 whole entry): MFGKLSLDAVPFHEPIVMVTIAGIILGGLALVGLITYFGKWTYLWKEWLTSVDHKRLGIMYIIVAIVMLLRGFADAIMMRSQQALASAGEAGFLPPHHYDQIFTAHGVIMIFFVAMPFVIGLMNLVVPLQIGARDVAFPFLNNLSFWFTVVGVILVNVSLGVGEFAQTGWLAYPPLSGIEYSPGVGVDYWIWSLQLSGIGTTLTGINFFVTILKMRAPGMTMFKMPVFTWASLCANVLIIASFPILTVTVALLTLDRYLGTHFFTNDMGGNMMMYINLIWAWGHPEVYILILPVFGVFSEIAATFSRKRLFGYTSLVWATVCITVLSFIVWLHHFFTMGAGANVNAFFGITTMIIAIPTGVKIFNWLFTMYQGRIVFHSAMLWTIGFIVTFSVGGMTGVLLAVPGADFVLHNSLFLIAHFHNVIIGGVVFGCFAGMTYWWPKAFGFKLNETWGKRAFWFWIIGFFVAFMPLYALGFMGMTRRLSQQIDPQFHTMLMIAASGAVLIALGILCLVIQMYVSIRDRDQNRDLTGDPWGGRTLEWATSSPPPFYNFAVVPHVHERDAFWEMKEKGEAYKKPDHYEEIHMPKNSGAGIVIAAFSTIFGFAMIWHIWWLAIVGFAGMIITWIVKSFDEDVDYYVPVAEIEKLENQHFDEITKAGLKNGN
Sequence (P0ABJ1 25-315 partner): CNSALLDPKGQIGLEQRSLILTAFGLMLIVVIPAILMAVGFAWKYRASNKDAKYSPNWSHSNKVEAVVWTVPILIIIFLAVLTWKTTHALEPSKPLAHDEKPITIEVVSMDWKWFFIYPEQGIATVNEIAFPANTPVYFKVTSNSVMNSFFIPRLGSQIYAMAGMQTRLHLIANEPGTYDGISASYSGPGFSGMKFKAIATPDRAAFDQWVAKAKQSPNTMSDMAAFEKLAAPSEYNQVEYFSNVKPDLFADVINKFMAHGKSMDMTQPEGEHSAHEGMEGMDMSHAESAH
Sequence (P0ABJ3 whole entry partner): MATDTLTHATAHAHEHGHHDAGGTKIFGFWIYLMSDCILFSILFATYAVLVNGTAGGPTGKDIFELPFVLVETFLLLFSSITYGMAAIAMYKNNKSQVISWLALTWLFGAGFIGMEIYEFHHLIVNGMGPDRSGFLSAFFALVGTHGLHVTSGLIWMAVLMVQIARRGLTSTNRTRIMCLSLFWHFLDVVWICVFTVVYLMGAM
Sequence (P0ABJ6 whole entry partner): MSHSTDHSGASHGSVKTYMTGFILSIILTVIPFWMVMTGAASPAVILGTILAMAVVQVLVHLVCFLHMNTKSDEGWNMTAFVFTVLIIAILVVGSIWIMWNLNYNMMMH
REPORTED_ENDPOINT: IC50
Reply with a number, then the unit it belongs to.

Problem: For the compound shown here, O=NO , give the reported IC50.
Solution: 120 µM

====

Target: S. oneidensis cbb3 (heme-copper oxidase cbb3) (Shewanella oneidensis, UniProt Q8EEL5)
Construct: gene ccoN
Sequence (Q8EEL5 1-478): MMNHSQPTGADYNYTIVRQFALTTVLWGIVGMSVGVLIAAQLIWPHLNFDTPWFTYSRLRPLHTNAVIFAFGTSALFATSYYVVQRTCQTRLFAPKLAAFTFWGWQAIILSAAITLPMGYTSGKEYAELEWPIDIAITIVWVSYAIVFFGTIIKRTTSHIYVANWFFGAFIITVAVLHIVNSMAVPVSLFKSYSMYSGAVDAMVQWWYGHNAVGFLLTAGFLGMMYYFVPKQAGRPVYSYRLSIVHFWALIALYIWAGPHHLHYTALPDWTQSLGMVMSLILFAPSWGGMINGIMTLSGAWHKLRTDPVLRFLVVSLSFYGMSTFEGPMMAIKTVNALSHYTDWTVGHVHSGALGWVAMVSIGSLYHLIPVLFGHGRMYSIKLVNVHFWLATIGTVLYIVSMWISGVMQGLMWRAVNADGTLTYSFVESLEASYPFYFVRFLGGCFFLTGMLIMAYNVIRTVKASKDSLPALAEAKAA
Sequence (Q8EEL6 1-208 partner): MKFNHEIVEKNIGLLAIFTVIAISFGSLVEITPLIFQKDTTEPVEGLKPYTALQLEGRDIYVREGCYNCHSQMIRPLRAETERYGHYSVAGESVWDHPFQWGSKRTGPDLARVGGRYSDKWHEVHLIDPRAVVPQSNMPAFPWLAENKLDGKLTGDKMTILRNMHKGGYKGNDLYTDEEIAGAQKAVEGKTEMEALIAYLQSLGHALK
Sequence (Q8EEL8 1-322 partner): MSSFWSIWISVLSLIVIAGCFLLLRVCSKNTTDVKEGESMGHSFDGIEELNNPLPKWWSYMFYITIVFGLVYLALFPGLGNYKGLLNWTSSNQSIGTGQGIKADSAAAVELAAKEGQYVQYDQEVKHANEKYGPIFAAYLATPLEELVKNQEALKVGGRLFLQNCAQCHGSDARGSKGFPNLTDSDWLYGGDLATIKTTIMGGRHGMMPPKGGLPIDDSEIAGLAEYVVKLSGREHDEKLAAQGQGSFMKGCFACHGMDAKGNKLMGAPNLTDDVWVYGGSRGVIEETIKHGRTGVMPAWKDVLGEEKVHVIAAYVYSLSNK
Sequence (Q8EEL7 1-58 partner): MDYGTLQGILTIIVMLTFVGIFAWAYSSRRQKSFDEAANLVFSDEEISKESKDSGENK
Conditions: read-out: IC50(NO2^-); 5 mM NADH as electron donor; ~70 μM O2; membranes of delta-cyd strain
From the text: oxygen consumption of membranes, O2 electrode on S. oneidensis cbb3 (heme-copper oxidase cbb3)
REPORTED_ENDPOINT: IC50 (µM)
Record the value in µM, omitting the unit from your answer.

Problem: What does the data say about its IC50? Entry: O=NO
Solution: 57

Origin of the recorded values: paper PMC7253457
